assay: Pharmacokinetic test in SD rats; format: in vivo; conditions: male, plasma, rat, iv, 1 mg/kg
MEASURED_PARAMETER: AUC(0-t) (ng·h/mL)
Could you give me the number in ng·h/mL? Just the number is fine.

Illustrative cases are given below, each with its answer.
# MOLECULE, AUC(0-t), ng·h/mL
rows = [
    ("[2H]c1ccc([C@H](C)Nc2cc(=O)n(C(C)C)c(=O)[nH]2)cc1", 3290),
    ("CC(C)n1c(=O)cc(N[C@@H](C)c2ccccc2)[nH]c1=O [MYK461, reference compound]", 2420),
    ("[2H]C([2H])([2H])C(n1c(=O)cc(N[C@@H](C)c2ccccc2)[nH]c1=O)C([2H])([2H])[2H]", 4450),
]

Lab note: next molecule to report on.
Write down AUC(0-t) measured for item `[2H]c1c([2H])c([2H])c([C@H](C)Nc2cc(=O)n(C(C)C)c(=O)[nH]2)c([2H])c1[2H]`
3670

====

assay: Pharmacokinetic test in SD rats; type: in vivo; details: male, plasma, rat, iv, 1 mg/kg
MEASURED_PARAMETER: MRT inf (h)
Output spec: scalar in h, unitless text.

The examples below pair each entry with its known result.
# MOLECULE, MRT inf / h
records = [
    ("CC(C)n1c(=O)cc(N[C@@H](C)c2ccccc2)[nH]c1=O [MYK461, reference compound]", 15.1),
    ("[2H]c1c([2H])c([2H])c([C@H](C)Nc2cc(=O)n(C(C)C)c(=O)[nH]2)c([2H])c1[2H]", 31.1),
    ("[2H]C([2H])([2H])C(n1c(=O)cc(N[C@@H](C)c2ccccc2)[nH]c1=O)C([2H])([2H])[2H]", 14.8),
]

# ---- query molecule ----
Indicate the recorded MRT inf value for this molecule: `[2H]c1ccc([C@H](C)Nc2cc(=O)n(C(C)C)c(=O)[nH]2)cc1`
18.8

====

assay: Pharmacokinetic test in SD rats; type: in vivo; settings: male, plasma, rat, iv, 1 mg/kg
MEASURED_PARAMETER: Cmax (ng/mL)
Please respond with the number in ng/mL and leave the unit unwritten.

Reference set (3 entries):
# COMPOUND, Cmax / ng/mL
measured = [
    ("[2H]c1c([2H])c([2H])c([C@H](C)Nc2cc(=O)n(C(C)C)c(=O)[nH]2)c([2H])c1[2H]", 883),
    ("CC(C)n1c(=O)cc(N[C@@H](C)c2ccccc2)[nH]c1=O [MYK461, reference compound]", 393),
    ("[2H]c1ccc([C@H](C)Nc2cc(=O)n(C(C)C)c(=O)[nH]2)cc1", 643),
]

Shifting focus to the compound that follows.
Output measured Cmax for this item: `[2H]C([2H])([2H])C(n1c(=O)cc(N[C@@H](C)c2ccccc2)[nH]c1=O)C([2H])([2H])[2H]`
982
